# Measured target: Epidermal growth factor receptor (Homo sapiens, UniProt P00533)
# Sequence (P00533 25-1210 limits assumed, stated change not applied): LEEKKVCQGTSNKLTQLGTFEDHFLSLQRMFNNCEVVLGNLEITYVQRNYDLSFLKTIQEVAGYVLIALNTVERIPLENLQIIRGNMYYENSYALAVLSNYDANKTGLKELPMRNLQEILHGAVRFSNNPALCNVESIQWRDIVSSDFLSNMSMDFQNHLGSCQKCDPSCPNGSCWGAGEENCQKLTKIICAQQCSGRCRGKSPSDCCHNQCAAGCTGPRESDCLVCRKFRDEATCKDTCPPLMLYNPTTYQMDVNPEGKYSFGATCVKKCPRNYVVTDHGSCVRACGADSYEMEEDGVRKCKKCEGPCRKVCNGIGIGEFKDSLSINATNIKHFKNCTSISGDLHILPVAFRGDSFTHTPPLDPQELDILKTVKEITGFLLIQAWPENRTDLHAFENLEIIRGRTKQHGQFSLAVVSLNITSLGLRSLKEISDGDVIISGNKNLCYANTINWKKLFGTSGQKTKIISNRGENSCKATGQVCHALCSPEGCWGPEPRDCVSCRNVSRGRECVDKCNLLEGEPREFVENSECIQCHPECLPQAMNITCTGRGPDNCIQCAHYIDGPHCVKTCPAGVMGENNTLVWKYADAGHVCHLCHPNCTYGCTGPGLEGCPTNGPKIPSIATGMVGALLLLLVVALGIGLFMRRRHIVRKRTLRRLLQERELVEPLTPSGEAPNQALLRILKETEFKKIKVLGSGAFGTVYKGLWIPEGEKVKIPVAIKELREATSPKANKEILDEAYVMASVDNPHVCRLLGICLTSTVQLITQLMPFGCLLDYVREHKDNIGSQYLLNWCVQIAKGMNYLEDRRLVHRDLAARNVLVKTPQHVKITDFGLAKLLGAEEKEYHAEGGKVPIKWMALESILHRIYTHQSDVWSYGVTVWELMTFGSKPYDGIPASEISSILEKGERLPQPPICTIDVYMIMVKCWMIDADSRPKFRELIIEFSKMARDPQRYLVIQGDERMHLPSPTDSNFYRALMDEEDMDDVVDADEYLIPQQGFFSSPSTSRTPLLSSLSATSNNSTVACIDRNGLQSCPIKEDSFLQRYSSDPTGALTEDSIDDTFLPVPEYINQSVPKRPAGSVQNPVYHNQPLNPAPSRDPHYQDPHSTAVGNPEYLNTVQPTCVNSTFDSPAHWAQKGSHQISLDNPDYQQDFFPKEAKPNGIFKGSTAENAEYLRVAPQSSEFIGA
# Assay method text: Inhibition of EGFR deletion (746 to 750 residues) mutant (unknown origin)
# Type: protein assay
Could you please report measured Ki for the items listed next?

QUERY: Endpoint output: Ki of "CC1(C)OCc2c(Nc3n[nH]c4c(Cl)cccc34)nc(-c3cn[nH]c3)nc21" . Value?
RESULT: 0.4 nM

QUERY: Likewise for "Cn1nccc1-c1nc(Nc2n[nH]c3ccccc23)c2c(n1)C(C)(C)OC2" ?
RESULT: < 0.5 nM

QUERY: How about this compound: "CC1(C)OCc2c(Nc3n[nH]c4ccccc34)nc(-c3cn[nH]c3)nc21"
RESULT: 0.2 nM

QUERY: Could you do the same for "CC1(C)OCc2c(Nc3n[nH]c4c(Cl)cccc34)nc(-c3cn[nH]c3C(F)F)nc21" , please?
RESULT: 1.7 nM
